IC50 values for the compounds below.
Target: Human recombinant LOXL2 (Homo sapiens, UniProt Q9Y4K0)
Sequence (Q9Y4K0 26-774): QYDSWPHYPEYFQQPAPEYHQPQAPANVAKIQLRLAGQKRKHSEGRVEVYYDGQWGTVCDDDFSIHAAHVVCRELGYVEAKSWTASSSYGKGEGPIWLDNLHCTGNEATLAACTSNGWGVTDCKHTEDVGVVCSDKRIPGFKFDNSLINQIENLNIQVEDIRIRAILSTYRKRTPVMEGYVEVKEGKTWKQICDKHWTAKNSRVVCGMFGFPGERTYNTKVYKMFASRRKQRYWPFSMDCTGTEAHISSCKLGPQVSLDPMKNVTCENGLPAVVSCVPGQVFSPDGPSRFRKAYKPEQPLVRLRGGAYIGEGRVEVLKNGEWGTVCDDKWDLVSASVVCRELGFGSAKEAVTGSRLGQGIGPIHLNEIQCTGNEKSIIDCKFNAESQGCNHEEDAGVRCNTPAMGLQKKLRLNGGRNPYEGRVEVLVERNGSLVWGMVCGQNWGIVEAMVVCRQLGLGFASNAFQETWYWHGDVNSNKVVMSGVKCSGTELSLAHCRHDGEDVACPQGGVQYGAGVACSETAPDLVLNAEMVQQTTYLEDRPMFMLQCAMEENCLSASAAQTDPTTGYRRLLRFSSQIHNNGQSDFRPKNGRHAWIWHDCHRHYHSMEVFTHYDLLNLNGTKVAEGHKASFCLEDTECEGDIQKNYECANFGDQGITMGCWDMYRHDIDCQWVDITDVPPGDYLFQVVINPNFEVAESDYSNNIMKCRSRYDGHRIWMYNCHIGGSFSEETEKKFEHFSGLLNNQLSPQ
Assay: LOXL2 inhibition, Amplex Red oxidation assay
Format: biochemical
Conditions: incubation with enzyme 30 min at 37° C; read-out: Human recombinant LOXL2 Activity IC50
State just the number; it will be interpreted in nM.

Compound	Result Units	Reported
[2H]c1c([2H])c([2H])c(S(=O)(=O)C(F)(F)/C(F)=C/CN)c([2H])c1[2H] [Compound 18]	nM	700
NC/C=C(\F)C(F)(F)S(=O)(=O)c1cccs1 [Compound 14]	nM	300
NC/C=C(\F)C(F)(F)S(=O)(=O)C1CCCC1 [Compound 19]	nM	500

Input: What IC50 value was documented for this compound, NC/C=C(\F)C(F)(F)S(=O)(=O)c1cccc2cccnc12 [Compound 2] ?
Output: 1800

Input: Try this compound too: CNc1ccccc1S(=O)(=O)C(F)(F)/C(F)=C/CN [Compound 4]
Output: 1000

Input: Try this compound too: CS(=O)(=O)c1cccc(CS(=O)(=O)C(F)(F)/C(F)=C/CN)c1 [Compound 17]
Output: 400

Input: Try this compound too: NC/C=C(/F)C(F)(F)S(=O)(=O)c1ccccc1 [Compound 1(E)]
Output: 2100

Input: Try this compound too: NC/C=C(\F)C(F)(F)S(=O)(=O)Cc1ccccc1 [Compound 8]
Output: 300

====

target: Human recombinant LOXL3 (Homo sapiens); test: LOXL3 inhibition, Amplex Red oxidation assay; format: biochemical; settings: incubation with enzyme 30 min at 37° C; read-out: Human recombinant LOXL3 Activity IC50
Sequence (P58215 26-753): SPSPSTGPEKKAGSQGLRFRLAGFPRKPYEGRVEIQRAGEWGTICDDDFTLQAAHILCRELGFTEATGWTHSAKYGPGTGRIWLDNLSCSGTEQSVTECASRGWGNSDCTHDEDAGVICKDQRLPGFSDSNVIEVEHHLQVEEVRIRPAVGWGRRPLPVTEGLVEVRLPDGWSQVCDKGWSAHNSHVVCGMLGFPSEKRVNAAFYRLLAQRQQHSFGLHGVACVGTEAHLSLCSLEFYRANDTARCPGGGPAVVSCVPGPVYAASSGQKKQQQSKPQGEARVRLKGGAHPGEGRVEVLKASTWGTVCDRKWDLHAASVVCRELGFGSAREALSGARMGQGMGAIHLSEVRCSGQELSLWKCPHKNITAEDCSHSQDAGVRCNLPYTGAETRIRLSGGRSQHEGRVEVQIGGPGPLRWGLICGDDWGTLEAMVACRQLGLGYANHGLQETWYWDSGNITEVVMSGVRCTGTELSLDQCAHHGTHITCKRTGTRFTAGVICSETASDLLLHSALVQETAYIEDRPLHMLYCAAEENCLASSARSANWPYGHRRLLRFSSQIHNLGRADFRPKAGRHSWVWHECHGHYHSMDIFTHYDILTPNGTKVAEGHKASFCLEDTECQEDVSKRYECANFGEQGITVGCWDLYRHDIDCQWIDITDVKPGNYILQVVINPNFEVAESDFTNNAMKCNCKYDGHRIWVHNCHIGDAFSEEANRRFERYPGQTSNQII
pIC50 values for the molecules below.
Would you please state pIC50, meaning minus log10 of the concentration in mol/L, as a bare number?

Examples with answers:
Molecule	pIC50
COc1cccc(S(=O)(=O)C(F)(F)/C(F)=C/CN)c1 [Compound 12]	5.57
NC/C=C(\F)C(F)(F)S(=O)(=O)Cc1ccccc1 [Compound 8]	6.00
N#CCCN [BAPN, β-aminopropionitrile, reference compound]	6.30
CS(=O)(=O)c1ccc(COc2ccccc2S(=O)(=O)C(F)(F)/C(F)=C/CN)cc1 [Compound 10]	5.82
CNc1ccccc1S(=O)(=O)C(F)(F)/C(F)=C/CN [Compound 4]	5.13

Input: What pIC50 value was documented for this molecule, Cc1ccc(S(=O)(=O)C(F)(F)/C(F)=C/CN)cc1 [Compound 6] ?
Output: 5.74

Input: Try this molecule too: NC/C=C(\F)C(F)(F)S(=O)(=O)c1cccs1 [Compound 14]
Output: 5.92

Input: Try this molecule too: NC/C=C(\F)C(F)(F)S(=O)(=O)c1cccc2cccnc12 [Compound 2]
Output: 4.79

Input: Try this molecule too: NC/C=C(\F)C(F)(F)S(=O)(=O)C1CCCC1 [Compound 19]
Output: 5.89

Input: Try this molecule too: CS(=O)(=O)c1cccc(CS(=O)(=O)C(F)(F)/C(F)=C/CN)c1 [Compound 17]
Output: 6.10

====

Biological target: recombinant human MAO-A (Homo sapiens, UniProt P21397)
Sequence (P21397 whole entry): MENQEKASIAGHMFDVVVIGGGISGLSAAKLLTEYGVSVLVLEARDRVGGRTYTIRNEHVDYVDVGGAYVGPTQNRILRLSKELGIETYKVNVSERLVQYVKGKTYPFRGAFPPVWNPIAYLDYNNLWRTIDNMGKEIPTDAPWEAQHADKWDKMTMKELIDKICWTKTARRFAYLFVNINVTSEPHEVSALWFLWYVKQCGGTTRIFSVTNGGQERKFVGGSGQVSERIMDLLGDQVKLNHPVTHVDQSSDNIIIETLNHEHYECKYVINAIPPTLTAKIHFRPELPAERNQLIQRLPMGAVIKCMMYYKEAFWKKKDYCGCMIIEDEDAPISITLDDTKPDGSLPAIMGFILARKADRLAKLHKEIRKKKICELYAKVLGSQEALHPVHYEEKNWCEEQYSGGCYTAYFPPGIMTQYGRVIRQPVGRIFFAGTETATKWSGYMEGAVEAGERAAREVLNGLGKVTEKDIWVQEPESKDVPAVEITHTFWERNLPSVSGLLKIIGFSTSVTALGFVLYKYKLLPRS
Experiment: MAO-A inhibition
Conditions: 2 hours incubation, tyramine 100 μM
Procedure: The specificity of the compounds of this invention was tested by determining their ability to inhibit MAO-A activity in vitro, using recombinant human MAO-A (0.003 mg/mL; Sigma Aldrich). The assay was performed in a similar way as for human SSAO/VAP-1 (Example 8) except, the incubation with the test compounds was extended to 2 hours, and the substrate tyramine was used at 100 μM in place of benzylamine.
IC50 values for the compounds below.

Examples with answers:
Compound	IC50
NC/C=C(\F)C(F)(F)S(=O)(=O)Cc1ccccc1	> 30 µM
N#CCCN [BAPN, β-aminopropionitrile, reference compound]	> 30 µM

Lab note: next compound to report on.
Input: What IC50 value was documented for this compound, Cc1ccc(S(=O)(=O)C(F)(F)/C(F)=C/CN)cc1 ?
Output: > 30 µM

====

pIC50 values for the compounds below.
biological target: Human recombinant LOXL1 (Homo sapiens); test: LOXL1 inhibition, Amplex Red oxidation assay; type: biochemical; conditions: incubation with enzyme 30 min at 37° C; read-out: Human recombinant LOXL1 Activity IC50
Sequence (Q08397 96-574): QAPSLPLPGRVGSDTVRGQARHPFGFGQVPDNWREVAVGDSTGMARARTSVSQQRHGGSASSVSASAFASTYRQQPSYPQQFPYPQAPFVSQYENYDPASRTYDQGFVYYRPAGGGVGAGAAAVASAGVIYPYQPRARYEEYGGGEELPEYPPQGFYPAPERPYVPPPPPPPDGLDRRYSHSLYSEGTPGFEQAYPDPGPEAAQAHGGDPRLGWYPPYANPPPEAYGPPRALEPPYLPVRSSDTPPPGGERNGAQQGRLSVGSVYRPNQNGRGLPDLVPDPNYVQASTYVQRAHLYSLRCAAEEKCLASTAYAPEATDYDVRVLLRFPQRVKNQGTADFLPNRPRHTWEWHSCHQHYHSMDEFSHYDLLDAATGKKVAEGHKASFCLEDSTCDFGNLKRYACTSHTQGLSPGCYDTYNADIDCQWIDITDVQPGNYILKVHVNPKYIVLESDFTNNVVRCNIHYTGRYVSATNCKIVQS
Would you please state pIC50, meaning minus log10 of the concentration in mol/L, as a bare number?

Input: What pIC50 value was documented for this compound, NC/C=C(\F)C(F)(F)S(=O)(=O)c1cccc2cccnc12 ?
Output: 4.87

Input: Try this compound too: NC/C=C(\F)C(F)(F)S(=O)(=O)c1cccs1
Output: 5.15

Input: Try this compound too: NC/C=C(\F)C(F)(F)[S+]([O-])c1ccccc1 (centres unmarked)
Output: 5.06

Input: Try this compound too: CS(=O)(=O)c1ccc(COc2ccccc2S(=O)(=O)C(F)(F)/C(F)=C/CN)cc1
Output: 5.70

Input: Try this compound too: CS(=O)(=O)c1cccc(CS(=O)(=O)C(F)(F)/C(F)=C/CN)c1
Output: 5.34

Input: Try this compound too: N#CCCN [BAPN, β-aminopropionitrile, reference compound]
Output: 5.60

Input: Try this compound too: Cc1ccc(S(=O)(=O)C(F)(F)/C(F)=C/CN)cc1
Output: 5.29

Input: Try this compound too: NC/C=C(\F)C(F)(F)S(=O)(=O)C1CCCC1
Output: 5.37
